# TEST: Cytotoxicity in Vero E6 cells (WST-1 assay among others)
# Type: cell-based
# EXPERIMENTAL PARAMETERS: African green monkey; Vero E6 cells, 48 h

SMILES STR: Oc1ccc(/C=C/c2cc(O)cc(O)c2)cc1
CC50 at 48 h (µM): 48.2

###

# TEST: Cytotoxicity in MRC5 cells, MTT assay
# EXPERIMENTAL PARAMETERS: human

MOLECULE: CN(C)C(=O)C(CCN1CCC(O)(c2ccc(Cl)cc2)CC1)(c1ccccc1)c1ccccc1 [Loperamide, loperamide]
CC50 at 48 h, µM: 10.1

###

# TEST: Cytotoxicity in MRC5 cells, MTT assay
# EXPERIMENTAL PARAMETERS: human, MRC5 cells

SMILES STR: CCCC(CCC)C(=O)O
CC50 at 48 h [µM]: 4000
//
SMILES STR: CCN(CC)C(=S)SSC(=S)N(CC)CC
CC50 at 48 h [µM]: 8.4

###

# TEST: in vitro
# EXPERIMENTAL PARAMETERS: human
QUANTITY NAME: CC50 at 48 h (µM)

SMILES STR: CO[C@H]1C[C@@H]2CC[C@@H](C)[C@@](O)(O2)C(=O)C(=O)N2CCCC[C@H]2C(=O)O[C@H]([C@H](C)C[C@@H]2CC[C@@H](O)[C@H](OC)C2)CC(=O)[C@H](C)/C=C(\C)[C@@H](O)[C@@H](OC)C(=O)[C@H](C)C[C@H](C)/C=C/C=C/C=C/1C
UNITS LABEL: µM
TEST RESULT: 2.5

Data origin: paper PMC7926471
